- Tested system: pertussis toxin (native PTx holotoxin) (Bordetella pertussis, strain  …, UniProt P04977;P04978;P04979;P0A3R5;P04981)
- Run description: ELISA
- Conditions: both partners purified
Experimental readout: pEC50
Scale: negative log10 of molar concentration, which is what pEC50 denotes.

QUERY: Need pEC50 of antibody A12 (antibody, V domains shown) VH: QVTLKESGGGLVKPGGSLRLSCAASGFTFTDYYMTWIRQAPGKGLEWVSCVGSSGTYTNYAQNVQGRFTISRDNAKNSLYLQMNSLRTEDTAVYYCARVTGSGNFYGSYHYYYMDVWGKGTMVTVSS VL: EVVLTQSPATLSLSPGKKATLSCRASQSVSNYLAWYQQKPGQSPRLLIFDASKRAAGIPARFSGSGSGTDFTLTISSLEPEDFAVYYCQQRTNWLTFGGGTKVEIK , thanks.
RESULT: 10.00
